# systemUnderTest: CDK2/Cyclin E1 (Homo sapiens (Human), UniProt P24941)
# assaySummary: biochemical
# conditionParameters: CDK2_Ki (nM), phosphorylated CDK2/Cyclin E1, 150 μM ATP, Morrison tight-binding fit
assayReadout: Ki (nM)
Record the value in nM, omitting the unit from your answer.

These solved cases illustrate the format of a correct answer.
| molecule | Ki / nM |
| --- | --- |
| C[C@@]1(O)CCC[C@H]1n1c(=O)c(Cl)cc2cnc(N[C@H]3CCN(S(C)(=O)=O)C[C@H]3F)nc21 (single isomer, unassigned) | 0.4 |
| CC(F)(F)CNS(=O)(=O)N1CCC(Nc2ncc3ccc(=O)n([C@@H]4CCC[C@@]4(C)O)c3n2)CC1 (single isomer, unassigned) | 0.21 |
| C[C@@]1(O)CCC[C@H]1n1c(=O)c(CC#N)cc2cnc(NC3CCN(S(C)(=O)=O)CC3)nc21 (single isomer, unassigned) | 0.16 |
| C[C@@]1(O)CCC[C@H]1n1c(=O)c(F)cc2cnc(NC3CCN(S(C)(=O)=O)CC3)nc21 (single isomer, unassigned) [Example 6] | 0.48 |

Query: Report Ki for C#CCCS(=O)(=O)N1CCC(Nc2ncc3cc(N)c(=O)n(C4CCCC4)c3n2)CC1 please.
Result: 4.08

Query: # Ki lookup, item CC1CCC[C@@H]1n1c(=O)c(CC(N)=O)cc2cnc(NC3CCN(S(C)(=O)=O)CC3)nc21 (stereo in doubt)
Result: 2.23

Query: Any idea what its Ki is? The molecule is CC(=O)c1c(C)c2cnc(NC3CCN(S(C)(=O)=O)CC3)nc2n([C@@H]2CCC[C@@]2(C)O)c1=O (single isomer, unassigned)
Result: 1.22
